Values from ChEMBL document CHEMBL1201862

System: A549
Assay: NCI tumour cell line growth inhibition, 48 h
Activity calls are given as the source filed them. No stated cut-off is given here; in the data, active = GI50 up to about 1.1 µM and inactive = higher.
Response enum: 1 (yes) (active), 0 (no) (inactive)

Query :: Entry CN1CCS(=O)(=O)NC(Cc2ccccc2)C(=O)N2CCCC2C1=O (stereo unspecified) : call = ?
Result :: 0 (no)

Query :: Entry Cc1ccc(C)c(NC(=O)C(=O)C2C(=O)C3=C(CC2(C)C)Nc2ccccc2S3)c1 (stereo unspecified) : call = ?
Result :: 0 (no)

Query :: Entry O=C1[C@@H]2C(c3ccc(Cl)cc3Cl)=NO[C@@H]2C(=O)N1c1ccc(Cc2ccc(N3C(=O)[C@H]4C(c5ccc(Cl)cc5Cl)=NO[C@H]4C3=O)cc2)cc1 : call = ?
Result :: 0 (no)

Query :: Entry Cc1c(NC(=S)Nc2ccc([N+](=O)[O-])cc2)c(=O)n(-c2ccccc2)n1C : call = ?
Result :: 0 (no)

Query :: Entry CCCCCCCCCCCC(=O)C1=C(O)CC(O)CC1=O (stereo unspecified) : call = ?
Result :: 0 (no)

Query :: Entry O=C1CC(c2cccc([N+](=O)[O-])c2)C2(C(=O)NC(=S)NC2=O)C(c2cccc([N+](=O)[O-])c2)C1 (stereo unspecified) : call = ?
Result :: 0 (no)

Query :: Entry O=C(Nc1cccc(Cl)c1)Nn1cnnc1 : call = ?
Result :: 0 (no)

Query :: Entry O=C(/C=C/c1ccsc1)c1ccsc1 : call = ?
Result :: 0 (no)

Query :: Entry COC(=O)/C(C#N)=C(\Nc1ccccc1)N1CCCCC1 : call = ?
Result :: 0 (no)

Query :: Entry CCN(CC)CCNc1ccc(/N=N/c2ccc(S(N)(=O)=O)cc2)c2ccccc12 : call = ?
Result :: 0 (no)

Query :: Entry O=C(c1ccccc1)c1ccc(OCCOc2ccc(Nc3ccccc3)cc2)cc1 : call = ?
Result :: 0 (no)

Query :: Entry O=C1c2ccccc2C(=O)C12CCc1ccccc12 : call = ?
Result :: 0 (no)

Query :: Entry CCOc1cc(NC(C)=O)ccc1C(=O)NN1C(=O)CSC1c1ccccc1 (stereo unspecified) : call = ?
Result :: 0 (no)

Query :: Entry Cc1cc(OP2(=O)NCc3ncccc3O2)ccc1Cl (stereo unspecified) : call = ?
Result :: 0 (no)

Query :: Entry Cc1cc(C)c2c(SCc3ccc(Cl)cc3Cl)nc(N)nc2n1 : call = ?
Result :: 0 (no)

Query :: Entry O=C(NC(CO)CO)c1ccc2cc(C(=O)N3CC(CCl)c4ccc([N+](=O)[O-])cc43)[nH]c2c1 (stereo unspecified) : call = ?
Result :: 0 (no)

Query :: Entry N#CI1OC(=O)c2ccccc21 : call = ?
Result :: 0 (no)

Query :: Entry NS(=O)(=O)c1ccc(Nc2c3ccccc3nc3c(C(=O)NCCO)cccc23)cc1 : call = ?
Result :: 1 (yes)

Query :: Entry CC1=NN(c2ccccc2)C(=O)/C1=C\c1ccc([N+](=O)[O-])cc1 : call = ?
Result :: 0 (no)

Query :: Entry NCC(O)CNCC/C=C\C/C=C\C/C=C\C/C=C\C/C=C\C/C=C\CCCCC/C=C\CCNCC(O)CN (stereo unspecified) : call = ?
Result :: 0 (no)

Query :: Entry CCN(CC)CCN1C(=O)C(=O)N(c2cccc3ccccc23)C1=O : call = ?
Result :: 0 (no)
